Origin of values: PubChem BioAssay (NCI)

- System: OVCAR-4 ovarian
- assay-summary: NCI tumour cell line growth inhibition, 48 h; in the data active = GI50 below about 0.43 µM; inactive = the rest
Outcome codes: True for active, False for inactive

- molecule: "C=C1C(=O)O[C@H]2[C@H]1CC/C(Cn1cc(-c3ccc(N)cc3)nn1)=C\\CC[C@@]1(C)O[C@@H]21"
  label: "False"
- molecule: "C/C(=C(/c1ccccc1)c1ccc(OCC(O)CNCCN2CCOCC2)cc1)c1ccccc1 (centres undefined)"
  label: "False"
- molecule: "CN(C)CCCOc1cccc(NC2=C(Cl)C(=O)C(Nc3cccc(OCCCN(C)C)c3)=C(Cl)C2=O)c1"
  label: "True"
- molecule: "CCSc1ccc([C@@H]2[C@@H](O)C(=O)N2c2cc(OC)c(OC)c(OC)c2)cc1"
  label: "True"
- molecule: "CCn1cc(/C=C2\\Oc3cc(OCC#N)ccc3C2=O)c2cc(OC)ccc21"
  label: "False"
- molecule: "CC(=O)/C=C/c1ccc(Nc2c3ccccc3nc3occ(Cl)c23)cc1"
  label: "False"
- molecule: "Cc1cc(N/N=C/c2nc(-c3ccc(Cl)cc3)oc2C)c2cc(Br)ccc2n1"
  label: "False"
- molecule: "COc1ccc2c(c1)C(=O)/C(=C/c1cccc(OCC(=O)Nc3nc(C)c(C)s3)c1)O2"
  label: "False"
- molecule: "COc1ccc(Nc2nc(Nc3cc(C)[nH]n3)c3cc(OC)c(OC)cc3n2)cc1"
  label: "False"

====

- Tested on: COLO 205 colon
- assay-summary: NCI tumour cell line growth inhibition, 48 h; in the data active = GI50 below about 0.43 µM; inactive = the rest
Possible outcomes: active, inactive

- compound: "CCCCCCNCCCNc1c2cc(OC)ccc2nc2cccc([N+](=O)[O-])c12"
  label: "active"
- compound: "COc1cc(F)ccc1-c1cc(Nc2cc(CS(C)(=N)=O)ccn2)ncc1F (stereo unspecified)"
  label: "active"
- compound: "COc1cc(C2=NN(C(C)=O)C(c3cc(OC)c(OC)c(OC)c3)C2)ccc1O (stereo unspecified)"
  label: "active"
- compound: "CCn1cc(/C=C2\\Oc3cc(OCC#N)ccc3C2=O)c2cc(OC)ccc21"
  label: "active"
- compound: "O=C1c2cccnc2-c2nc(-c3cccnc3)cc3c2c1nc1ccccc13"
  label: "inactive"
- compound: "Cc1cn(-c2cccc(NC(=O)c3ccc(C)c(Nc4nccc(-c5cccnc5)n4)c3)c2)cn1"
  label: "inactive"
- compound: "Cn1c(=O)n(C)c2cc(CNCCNc3ccnc4cc(Cl)ccc34)ccc21"
  label: "inactive"
- compound: "COc1cc(OCc2cccc(-c3ccccc3)c2C)cc(OC)c1CN1CCCCC1C(=O)NCCOCCOCCN (stereo unspecified)"
  label: "inactive"
- compound: "O=C(c1ccc2ccccc2c1)c1nc2cc(F)ccc2[n+]([O-])c1C(F)(F)F"
  label: "inactive"
- compound: "Nc1c(C(=O)c2cccc(C#CCN3CCCCC3)c2)cnn1-c1ccc(F)cc1"
  label: "inactive"
- compound: "COc1cc([C@@H]2c3cc4c(cc3[C@H](OC(C)=O)[C@H]3COC(=O)[C@@H]23)OCO4)cc(OC)c1OC"
  label: "active"
- compound: "CCCN(CCC)c1ccc(C=O)c(Cl)c1"
  label: "inactive"
- compound: "NC(=O)c1cccnc1"
  label: "inactive"
- compound: "Cc1ccc(S(=O)(=O)c2nc(-c3ccccc3)oc2S(C)(=O)=O)cc1"
  label: "inactive"
- compound: "CC(C)(C)NCC(O)COc1c(Br)c(Br)c(Br)c2c1OC(C)(C)C2 (stereo unspecified)"
  label: "inactive"
- compound: "CCN1[C@@H](C(=O)NC23CCC(C(=O)O)(CC2)CC3)[C@H](c2cccc(Cl)c2F)[C@]2(C(=O)Nc3cc(Cl)ccc32)C12CCCCC2"
  label: "inactive"
